meta.source: patent US11524966B1

# TARGET_OR_TEST_SYSTEM: USP25 (USP25-His6, Boston Biochem E-546) (Homo sapiens, UniProt Q9UHP3)
# Construct: His6; purchased Boston Biochem E-546
# Sequence (Q9UHP3 1-1055): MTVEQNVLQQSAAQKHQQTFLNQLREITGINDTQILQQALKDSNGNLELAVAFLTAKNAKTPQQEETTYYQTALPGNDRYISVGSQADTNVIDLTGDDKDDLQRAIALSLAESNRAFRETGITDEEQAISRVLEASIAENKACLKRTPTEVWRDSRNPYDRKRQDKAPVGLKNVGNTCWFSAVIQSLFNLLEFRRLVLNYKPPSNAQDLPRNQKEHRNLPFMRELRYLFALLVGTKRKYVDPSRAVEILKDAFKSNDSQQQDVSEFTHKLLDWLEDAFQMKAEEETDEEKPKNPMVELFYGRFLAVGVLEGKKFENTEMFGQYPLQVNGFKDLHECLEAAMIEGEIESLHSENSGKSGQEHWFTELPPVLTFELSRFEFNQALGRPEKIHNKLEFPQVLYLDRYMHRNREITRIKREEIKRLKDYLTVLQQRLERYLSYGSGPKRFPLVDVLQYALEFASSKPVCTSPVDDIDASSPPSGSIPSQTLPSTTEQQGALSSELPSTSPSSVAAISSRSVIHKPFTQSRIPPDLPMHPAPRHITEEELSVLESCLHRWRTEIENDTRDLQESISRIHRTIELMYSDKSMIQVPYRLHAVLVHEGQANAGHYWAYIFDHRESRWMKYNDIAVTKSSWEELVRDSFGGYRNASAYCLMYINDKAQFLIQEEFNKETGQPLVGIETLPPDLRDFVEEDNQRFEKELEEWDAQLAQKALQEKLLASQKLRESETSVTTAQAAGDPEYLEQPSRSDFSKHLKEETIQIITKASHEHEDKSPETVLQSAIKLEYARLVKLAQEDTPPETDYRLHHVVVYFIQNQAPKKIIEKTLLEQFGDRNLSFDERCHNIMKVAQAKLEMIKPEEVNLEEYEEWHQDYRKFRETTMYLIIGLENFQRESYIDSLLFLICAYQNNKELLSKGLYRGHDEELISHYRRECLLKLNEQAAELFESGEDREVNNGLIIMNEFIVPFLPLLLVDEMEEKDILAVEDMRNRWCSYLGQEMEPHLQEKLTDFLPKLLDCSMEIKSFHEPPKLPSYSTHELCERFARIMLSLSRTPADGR
# ASSAY: Ubiquitin-Rhodamine 110 Assay for USP25 Activity, Example A-2
# Type: biochemical
# CONDITION_DETAILS: Ubiquitin-Rhodamine 110 assay, Example A-2; read-out: USP25 A-2 IC50 range
Entries and their IC50

# COMPOUND, TARGET_OR_TEST_SYSTEM, IC50
data = [
    ("CO[C@H]1CN(c2cc3c(cc2C#N)C[C@@H](NC(=O)c2sc4nc(C)ccc4c2N)CO3)C[C@@H]1N", "USP25 (USP25-His6, Boston Biochem E-546) (Homo sapiens, UniProt Q9UHP3)", "50 to 200 nM"),
]

Value lookup for IC50; key = Cc1ccc2c(N)c(C(=O)N[C@H]3COc4cc(N5CC6CNCC(C5)O6)cc(F)c4C3)sc2n1
50 to 200 nM

Any idea what IC50 was measured for Cc1ccc2c(N)c(C(=O)N[C@H]3COc4c(cc(F)c(N5CCNCC5)c4F)C3)sc2n1 (single isomer, unassigned) ?
50 to 200 nM

Name the reported IC50 value associated with the compound CO[C@H]1CN(c2ccc3c(c2)OC[C@H](NC(=O)c2sc4nc(C)sc4c2N)C3)C[C@H]1N
200 to 2000 nM
